biological target: T1, MAGE-A1 peptide on HLA-A*02:01 (human); assay: JKR9 reporter + peptide-loaded T2, 16 h; full-length, on cells
T1 peptide: KVLEYVIKV
measure: EC50 of peptide (nM)

binder	unit-abbrev	numeric-value
ht27M1418 (TCR, V domains shown) Valpha: GEDVEQSLFLSVREGDSSVINCTYTDSSSTYLYWYKQEPGAGLQLLTYGTWLMDMKQDQRLTVLLNKKDKHLSLRIADTQTGDSAIYFCAGSGGGTDKLIFGTGTRLQVFP Vbeta: GAVVSQHPSWVICKSGTSVKIECRSLDFQATTMFWYRQFPKQSLMLMATSNEGSKATYEQGVEKDKFLINHASLTLSTLTVTSAHPEDSSFYICSAREPGQGPYEQYFGPGTRLTVT	nM	10.1
ht27M1005 (TCR, V domains shown) Valpha: GEDVEQSLFLSVREGDSSVINCTYTDSSSTYLYWYKQEPGAGLQLLTYIFSNMDMKQDQRLTVLLNKKDKHLSLRIADTQTGDSAIYFCAGSGGGTDKLIFGTGTRLQVFP Vbeta: GAVVSQHPSWVICKSGTSVKIECRSLDFQATTMFWYRQFPKQSLMLMATSNEGSKATYEQGVEKDKFLINHASLTLSTLTVTSAHPEDSSFYICSAREPGQGPLEQYFGPGTRLTVT	nM	1550
ht27M1387 (TCR, V domains shown) Valpha: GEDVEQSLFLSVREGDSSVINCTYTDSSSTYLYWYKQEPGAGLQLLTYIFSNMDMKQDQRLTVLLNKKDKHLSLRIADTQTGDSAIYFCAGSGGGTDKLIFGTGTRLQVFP Vbeta: GAVVSQHPSWVICKSGTSVKIECRSLDFPIERMFWYRQFPKQSLMLMATSNEGSKATYEQGVEKDKFLINHASLTLSTLTVTSAHPEDSSFYICSAREPGQGPYEQYFGPGTRLTVT	nM	128

Reference source for all entries: patent EP4534554A1
